# Assay procedure: soluble fraction after stress (log2 fold change); higher = more stays soluble; pooled small domains, quantitative proteomics
# Study conditions: stress: 50 degC
Reported soluble fraction (log2) maps to class as: low group = under -0.7, middle group = from -0.7 up to -0.03, high group = -0.03 and over

Would you please look over these solved cases?
{"columns": ["Residues", "Label class"],
 "data": [
  ["HMAKRTVPSVAEAIDNFRRQHRRMPSYAEMLPLLGVRSKSVVHFWINKLLENGLLEKDDKGYLTPGS", "high group"],
  ["HMAPLEPLTDRETEMLVRLANGASNKVMARESFVSENTIKFHLKNIYAKLGVTSRLQAIAAARNQGLI", "low group"],
  ["HMFLPETEVKSFFHRGITKISPSLAMDIADFFRMPFAVILKRALALEVISDEQYRSFMTVKPEHV", "high group"]
]}

Please let me know in which category the item HMPEMAIRTLRLRNQRGAAVAAEWSRITASLLELRQVEFVNPVDQLIVLKGPEPWAGVAEELVRQLDV belongs.
low group

The entry to classify is HMQDLVAVPALTGLTENDAINKAKANNLIAVVSEYKTENSVEPGKVLEQDPESSTEVKKGTIIKLVVS ; which class holds it?
high group
